Target: MC1-R (Mus musculus, UniProt Q01727)
Construct: B-16 mouse melanoma cells (containing MC1-R); endogenous in cells
Sequence (Q01727 whole entry): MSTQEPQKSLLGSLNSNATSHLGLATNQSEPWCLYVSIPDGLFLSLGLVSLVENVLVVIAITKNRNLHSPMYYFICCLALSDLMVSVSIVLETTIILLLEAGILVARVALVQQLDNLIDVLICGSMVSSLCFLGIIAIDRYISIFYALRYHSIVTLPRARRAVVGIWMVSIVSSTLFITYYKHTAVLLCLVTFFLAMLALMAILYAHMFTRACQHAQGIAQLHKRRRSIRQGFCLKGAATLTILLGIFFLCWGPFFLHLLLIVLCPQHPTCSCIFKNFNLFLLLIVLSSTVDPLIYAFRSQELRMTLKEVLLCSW
Test: Competitive inhibition assay using [I^125]-NDP-α-MSH, B-16 mouse melanoma cell membranes
Format: binding
Settings: read-out: Ki (nM) (NDP-α-MSH) In Normal System, MC1-R
readout-type: Ki (nM)
Please state the figure in nM; there is no need to write the unit.

Observe how each entry below is paired with its result.
INSERT INTO measurements (compound, result_number) VALUES
  ('NCCCC[C@H]1C(=O)N(CCc2ccc3ccccc3c2)CCN1C(=O)[C@@H](Cc1ccc(Cl)cc1Cl)NC(=O)[C@@H]1CC[C@H](c2ccccc2)N1 [Example 18]', 1370),
  ('N=C(N)NCCC[C@H]1C(=O)N2C(CC[C@@H]2COc2ccc3ccccc3c2)N1C(=O)[C@@H](Cc1ccc(Cl)cc1Cl)NC(=O)[C@@H]1CC[C@H](c2ccccc2)N1 (stereo partly drawn) [Example 19]', 1040);

Okay, now this compound:
Form field: reported Ki of Cc1[nH]c2ccccc2c1CCN1C[C@H](CCCNC(=N)N)N(C(=O)[C@H](N)Cc2ccc3ccccc3c2)C[C@H]1C [Example 8]
148

###

Target: UniProt:P41968
Sequence (P41968 whole entry): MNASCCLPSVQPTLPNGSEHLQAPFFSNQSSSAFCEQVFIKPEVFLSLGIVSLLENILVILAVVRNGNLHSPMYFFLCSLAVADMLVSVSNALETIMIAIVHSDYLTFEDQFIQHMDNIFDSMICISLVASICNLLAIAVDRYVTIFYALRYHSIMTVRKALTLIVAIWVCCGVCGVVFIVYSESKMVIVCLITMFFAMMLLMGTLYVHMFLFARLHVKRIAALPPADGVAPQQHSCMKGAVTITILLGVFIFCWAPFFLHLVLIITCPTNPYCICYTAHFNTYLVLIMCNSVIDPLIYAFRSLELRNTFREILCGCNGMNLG
Assay: Competitive inhibition assay using [I^125]-NDP-α-MSH, hMC3-R membranes
Type: binding
Design: expressed in transfected cells
Conditions: 1 μM test compound; read-out: Inhibition at 1 μM (NDP-α-MSH) In Normal System, MC3-R
Non-standard residues stand in square brackets, D forms with d. Residues, ends and D or L forms follow the SMILES beside them. *: point of attachment. dPhe(4-Cl) = N[C@H](Cc1ccc(Cl)cc1)C(=O)O; Ahp = NCCCCCCC(=O)O; Bn = c1ccc(C*)cc1
Mark true (1) for reported inhibition at 1 µM of 80% or greater; mark false (0) for anything smaller.

Use the examples below as a reference point.
INSERT INTO assay_data (compound, classification) VALUES
  ('CC(=O)N[C@H](Cc1ccc(C)cc1C)C(=O)N1C[C@@H](C)N(CCc2ccc3ccccc3c2)C[C@@H]1CCCNC(=N)N', 'false (0)'),
  ('N=C(N)NCCC[C@H](NC(=O)[C@@H](Cc1ccc(Cl)cc1)NC(=O)[C@H](COCc1ccccc1)NC(=O)CCCCCCN)C(=O)N[C@@H](Cc1c[nH]c2ccccc12)C(=O)N[C@@H](CC(=O)O)C(N)=O [Example 13] (H-[Ahp]S(Bn)[dPhe(4-Cl)]RWD-NH2)', 'false (0)'),
  ('C[C@H](NC(=O)[C@H](Cc1c[nH]c2ccccc12)NC(=O)[C@H](CCCNC(=N)N)NC(=O)[C@@H](Cc1ccc(Cl)cc1)NC(=O)[C@H](COCc1ccccc1)NC(=O)CCCCCCN)C(N)=O [Example 15] (H-[Ahp]S(Bn)[dPhe(4-Cl)]RWA-NH2)', 'true (1)'),
  ('CC(C)C[C@@H]1CN(C(=O)[C@H](N)Cc2ccc(Cl)cc2Cl)[C@@H](CCCNC(=N)N)CN1CCc1ccc2ccccc2c1', 'false (0)');

Shifting focus to the compound that follows.
Check the entry `Cc1cc(Cl)ccc1C[C@@H](N)C(=O)N1C[C@@H](C)N(CCc2ccc3ccccc3c2)C[C@@H]1CCCNC(=N)N` : does inhibition at 1 µM equal or exceed 80%?
false (0)
